Sourced from patent US11325936B2

system: SpNanB (Streptococcus pneumoniae serotype 4, UniProt Q54727, E68D/K536E/K577E/N393D/S59P)
Sequence (Q54727 30-697 S59P/E68D/N393D/K536E/K577E): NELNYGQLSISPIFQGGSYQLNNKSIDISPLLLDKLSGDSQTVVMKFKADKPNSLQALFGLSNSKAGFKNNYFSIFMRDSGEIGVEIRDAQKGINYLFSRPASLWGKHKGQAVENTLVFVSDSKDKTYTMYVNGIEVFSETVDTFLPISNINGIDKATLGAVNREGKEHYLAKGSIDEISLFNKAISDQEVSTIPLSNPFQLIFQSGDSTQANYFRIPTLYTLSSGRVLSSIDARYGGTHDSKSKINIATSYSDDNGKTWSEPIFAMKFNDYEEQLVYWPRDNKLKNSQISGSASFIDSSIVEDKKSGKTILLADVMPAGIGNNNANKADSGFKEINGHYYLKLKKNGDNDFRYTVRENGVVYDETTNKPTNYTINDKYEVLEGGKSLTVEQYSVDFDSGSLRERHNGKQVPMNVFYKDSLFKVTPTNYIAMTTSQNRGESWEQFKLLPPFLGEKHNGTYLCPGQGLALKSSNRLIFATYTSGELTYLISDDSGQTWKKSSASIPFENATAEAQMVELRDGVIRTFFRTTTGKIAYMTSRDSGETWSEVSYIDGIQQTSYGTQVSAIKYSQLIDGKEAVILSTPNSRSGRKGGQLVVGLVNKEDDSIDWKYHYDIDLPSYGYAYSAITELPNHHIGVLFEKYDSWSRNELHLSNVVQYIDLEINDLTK
assay-notes: Sialidase inhibition assay (Example 4)
Type: biochemical
test-parameters: pH 6, read-out: Percentage inhibition (%) against SpNanB
value-type: inhibition at 100 µM (%)

> print(dat)
                                   molecule            value.type  quantitative.result
1  O=C(CO)N[C@@H]1C(O)C=C(C(=O)O)OC1[C@H](O)[C@H](O)CO (stereo partly shown)  inhibition at 100 µM                    4
2  CCCCC(=O)NC[C@@H](O)[C@@H](O)[C@@H]1OC(C(=O)O)=C[C@H](O)[C@H]1NC(C)=O  inhibition at 100 µM                    3
3  O=C(Cc1ccccc1)N[C@H]1[C@H]([C@H](O)[C@H](O)CO)OC(C(=O)O)=C[C@@H]1O  inhibition at 100 µM                    5
4  CC(=O)N[C@@H]1C(O)C=C(C(=O)O)OC1[C@H](O)[C@H](O)CNC(=O)C1CC1 (stereo partly shown)  inhibition at 100 µM                    2
5  CC(=O)N[C@@H]1C(O)C=C(C(=O)O)OC1C[C@H](O)CO (stereo partly shown)  inhibition at 100 µM                    2
6  CC(=O)NC[C@@H](O)[C@@H](O)[C@@H]1OC(C(=O)O)=C[C@H](O)[C@H]1NC(C)=O  inhibition at 100 µM                    4
7  CC(=O)N[C@H]1[C@H]([C@H](O)[C@H](O)CO)OC(C(=O)O)=C[C@@H]1O [compound 6, reference compound]  inhibition at 100 µM                    4

====

Listed here: items and their measured inhibition at 100 µM.
system: UniProt P0C6E9
Sequence (P0C6E9 25-781): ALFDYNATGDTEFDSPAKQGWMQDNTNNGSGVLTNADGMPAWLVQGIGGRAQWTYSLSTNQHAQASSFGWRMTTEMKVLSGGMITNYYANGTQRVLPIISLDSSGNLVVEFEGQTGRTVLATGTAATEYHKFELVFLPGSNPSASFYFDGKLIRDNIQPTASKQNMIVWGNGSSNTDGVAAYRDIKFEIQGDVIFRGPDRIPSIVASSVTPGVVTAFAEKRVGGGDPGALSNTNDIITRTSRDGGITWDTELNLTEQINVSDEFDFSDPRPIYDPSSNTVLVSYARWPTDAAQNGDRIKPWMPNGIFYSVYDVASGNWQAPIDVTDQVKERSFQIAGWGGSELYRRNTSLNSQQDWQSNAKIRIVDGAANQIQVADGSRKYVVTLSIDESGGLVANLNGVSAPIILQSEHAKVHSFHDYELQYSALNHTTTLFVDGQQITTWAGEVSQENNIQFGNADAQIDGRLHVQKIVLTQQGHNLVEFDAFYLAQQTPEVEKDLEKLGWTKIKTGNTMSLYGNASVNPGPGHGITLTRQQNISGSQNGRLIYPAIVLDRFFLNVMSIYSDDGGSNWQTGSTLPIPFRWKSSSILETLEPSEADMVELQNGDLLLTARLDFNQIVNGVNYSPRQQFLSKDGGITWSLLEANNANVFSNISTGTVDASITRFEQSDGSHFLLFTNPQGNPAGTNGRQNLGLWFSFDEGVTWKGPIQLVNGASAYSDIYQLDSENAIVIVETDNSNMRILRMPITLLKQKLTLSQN
assay-notes: biochemical
test-parameters: pH 5.5, read-out: Percentage inhibition (%) against VcSialidase, 0.1 mM of each inhibitor, substrate Neu5Acα2-3GalβpNP 0.3 mM
value-type: inhibition at 100 µM (%)

> print(dat)
                                   compound  unit.name  quantitative.result
1  CC(=O)N[C@@H]1C(O)C=C(C(=O)O)OC1[C@H](O)[C@H](O)CNC(=O)C1CC1 (some centres unmarked)          %                   40
2  CC(=O)N[C@@H]1C(O)C=C(C(=O)O)OC1C[C@H](O)CO (some centres unmarked)          %                   40
3  O=C(Cc1ccccc1)N[C@H]1[C@H]([C@H](O)[C@H](O)CO)OC(C(=O)O)=C[C@@H]1O          %                    5
4  CCCCC(=O)NC[C@@H](O)[C@@H](O)[C@@H]1OC(C(=O)O)=C[C@H](O)[C@H]1NC(C)=O          %                   43
5  CC(=O)NC[C@@H](O)[C@@H](O)[C@@H]1OC(C(=O)O)=C[C@H](O)[C@H]1NC(C)=O          %                   45

====

system: CpNanH (Clostridium perfringens, UniProt P10481)
Sequence (P10481 whole entry, looked up): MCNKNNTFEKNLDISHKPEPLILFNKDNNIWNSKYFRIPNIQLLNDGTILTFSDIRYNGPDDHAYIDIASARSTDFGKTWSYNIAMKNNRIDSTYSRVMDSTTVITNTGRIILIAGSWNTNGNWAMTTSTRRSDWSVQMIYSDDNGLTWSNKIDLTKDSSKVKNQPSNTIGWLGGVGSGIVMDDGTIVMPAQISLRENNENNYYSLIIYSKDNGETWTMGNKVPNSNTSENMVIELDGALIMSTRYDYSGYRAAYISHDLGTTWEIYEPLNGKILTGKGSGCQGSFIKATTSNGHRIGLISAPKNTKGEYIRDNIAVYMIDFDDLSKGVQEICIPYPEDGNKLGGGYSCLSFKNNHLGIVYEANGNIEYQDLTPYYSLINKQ
assay-notes: biochemical
test-parameters: pH 5.0; read-out: Percentage inhibition (%) against CpNanH
value-type: inhibition at 100 µM (%)

> print(dat)
                                   compound  quantitative.result
1  CC(=O)N[C@@H]1C(O)C=C(C(=O)O)OC1[C@H](O)[C@H](O)CNC(=O)C1CC1 (stereo partly shown)                    7
2  CC(=O)NC[C@@H](O)[C@@H](O)[C@@H]1OC(C(=O)O)=C[C@H](O)[C@H]1NC(C)=O                    1
3  O=C(CO)N[C@@H]1C(O)C=C(C(=O)O)OC1[C@H](O)[C@H](O)CO (stereo partly shown)                    9
4  CC(=O)N[C@@H]1C(O)C=C(C(=O)O)OC1C[C@H](O)CO (stereo partly shown)                   11
5  CC(=O)N[C@H]1[C@H]([C@H](O)[C@H](O)CO)OC(C(=O)O)=C[C@@H]1O [compound 6, reference compound]                    2
6  O=C(Cc1ccccc1)N[C@H]1[C@H]([C@H](O)[C@H](O)CO)OC(C(=O)O)=C[C@@H]1O                    8
7  CCCCC(=O)NC[C@@H](O)[C@@H](O)[C@@H]1OC(C(=O)O)=C[C@H](O)[C@H]1NC(C)=O                    3

====

system: SpNanA (Streptococcus pneumoniae)
Sequence (P62575 54-1006): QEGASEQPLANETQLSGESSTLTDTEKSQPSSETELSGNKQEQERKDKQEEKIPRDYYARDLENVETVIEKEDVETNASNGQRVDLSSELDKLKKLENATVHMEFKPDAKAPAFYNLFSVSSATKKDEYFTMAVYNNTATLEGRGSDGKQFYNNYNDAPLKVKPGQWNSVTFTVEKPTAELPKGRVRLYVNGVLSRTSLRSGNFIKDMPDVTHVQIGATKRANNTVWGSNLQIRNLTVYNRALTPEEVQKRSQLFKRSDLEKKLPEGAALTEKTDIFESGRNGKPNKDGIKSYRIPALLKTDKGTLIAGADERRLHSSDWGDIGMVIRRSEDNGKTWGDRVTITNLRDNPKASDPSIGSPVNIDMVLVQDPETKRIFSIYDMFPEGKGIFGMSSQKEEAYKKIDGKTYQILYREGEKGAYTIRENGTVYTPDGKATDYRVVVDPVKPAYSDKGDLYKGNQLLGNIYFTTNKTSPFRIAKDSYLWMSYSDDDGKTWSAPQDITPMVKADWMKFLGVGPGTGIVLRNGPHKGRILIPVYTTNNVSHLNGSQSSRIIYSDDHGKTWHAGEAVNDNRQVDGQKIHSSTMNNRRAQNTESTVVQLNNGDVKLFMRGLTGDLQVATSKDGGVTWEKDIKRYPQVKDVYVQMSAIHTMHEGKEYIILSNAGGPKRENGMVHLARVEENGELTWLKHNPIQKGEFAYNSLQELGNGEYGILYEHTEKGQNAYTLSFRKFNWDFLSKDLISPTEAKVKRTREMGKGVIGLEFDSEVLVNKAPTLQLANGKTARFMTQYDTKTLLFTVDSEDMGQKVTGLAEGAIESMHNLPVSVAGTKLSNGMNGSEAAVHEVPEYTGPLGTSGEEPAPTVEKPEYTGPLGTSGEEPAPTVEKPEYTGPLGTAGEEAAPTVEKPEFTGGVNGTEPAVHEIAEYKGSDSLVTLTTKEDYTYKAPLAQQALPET
assay-notes: Sialidase inhibition assay (Example 4)
Type: biochemical
test-parameters: pH 6, read-out: Percentage inhibition (%) against SpNanA, 0.1 mM of each inhibitor; substrate Neu5Acα2-3GalβpNP 0.3 mM; pH 6.0
value-type: inhibition at 100 µM (%)

> print(dat)
                                   molecule            value.type  quantitative.result
1  CC(=O)NC[C@@H](O)[C@@H](O)[C@@H]1OC(C(=O)O)=C[C@H](O)[C@H]1NC(C)=O [compound 9]  inhibition at 100 µM                   86
2  CCCCC(=O)NC[C@@H](O)[C@@H](O)[C@@H]1OC(C(=O)O)=C[C@H](O)[C@H]1NC(C)=O [compound 12]  inhibition at 100 µM                   85
3  O=C(Cc1ccccc1)N[C@H]1[C@H]([C@H](O)[C@H](O)CO)OC(C(=O)O)=C[C@@H]1O [compound 15]  inhibition at 100 µM                    2
4  CC(=O)N[C@@H]1C(O)C=C(C(=O)O)OC1[C@H](O)[C@H](O)CNC(=O)C1CC1 (stereo partly drawn) [compound 13]  inhibition at 100 µM                   91
5  O=C(CO)N[C@@H]1C(O)C=C(C(=O)O)OC1[C@H](O)[C@H](O)CO (stereo partly drawn) [compound 7]  inhibition at 100 µM                   14
6  CC(=O)N[C@@H]1C(O)C=C(C(=O)O)OC1C[C@H](O)CO (stereo partly drawn) [compound 10]  inhibition at 100 µM                   89

====

system: AuSialidase (Paenarthrobacter ureafaciens, UniProt Q5W7Q2)
Sequence (Q5W7Q2 39-990): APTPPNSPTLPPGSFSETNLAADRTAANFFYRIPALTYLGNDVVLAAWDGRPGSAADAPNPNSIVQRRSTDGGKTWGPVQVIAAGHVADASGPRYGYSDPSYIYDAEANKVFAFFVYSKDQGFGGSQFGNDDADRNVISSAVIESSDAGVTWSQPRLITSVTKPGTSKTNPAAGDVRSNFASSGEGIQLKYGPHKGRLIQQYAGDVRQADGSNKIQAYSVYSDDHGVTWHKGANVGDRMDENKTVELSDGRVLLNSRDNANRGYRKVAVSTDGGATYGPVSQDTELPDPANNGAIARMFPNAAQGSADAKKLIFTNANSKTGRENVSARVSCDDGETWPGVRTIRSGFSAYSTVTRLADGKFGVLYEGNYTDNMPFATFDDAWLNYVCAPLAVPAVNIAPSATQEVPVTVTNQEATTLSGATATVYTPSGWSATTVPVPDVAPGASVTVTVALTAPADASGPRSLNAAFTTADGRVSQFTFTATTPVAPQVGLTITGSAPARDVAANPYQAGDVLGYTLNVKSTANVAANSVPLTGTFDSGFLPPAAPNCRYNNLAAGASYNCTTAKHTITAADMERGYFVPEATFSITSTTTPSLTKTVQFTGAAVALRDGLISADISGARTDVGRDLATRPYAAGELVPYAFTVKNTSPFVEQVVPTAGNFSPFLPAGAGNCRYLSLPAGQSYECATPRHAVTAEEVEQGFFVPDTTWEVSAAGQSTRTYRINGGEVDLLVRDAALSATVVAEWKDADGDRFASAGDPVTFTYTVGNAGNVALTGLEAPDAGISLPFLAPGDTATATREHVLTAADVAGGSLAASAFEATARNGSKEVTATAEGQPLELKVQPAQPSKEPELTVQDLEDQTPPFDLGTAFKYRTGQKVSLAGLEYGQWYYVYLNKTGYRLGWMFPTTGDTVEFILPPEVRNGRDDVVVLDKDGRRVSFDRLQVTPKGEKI
pIC50: −log10 of the molar value.
value-type: pIC50

> print(dat)
                                chem.smiles  quantitative.result
1  O=C(N[C@H]1[C@H]2O[C@@](C(=O)O)(C[C@@H]1O)O[C@@H]2[C@H](O)CO)C(F)(F)F                 3.65
